Values from PubChem BioAssay AID1963834

# viability, T/C annotations
Tested on: 873145-292-R-J1-PDC complex spheroid viability
Experiment: Anticancer human tumor 873145-292-R-J1-PDC patient-derived renal clear cell carcinoma cell line growth inhibition [POLQ]
Conditions: second compound 10 µM; first compound 0.01 µM; stronger effect = lower value
Give the quantity in %, number only.

Task: Tell me the measured viability, T/C of COc1cccc(OCCCN)c1-c1cc(Nc2cnc(C#N)cn2)n[nH]1 + COC1C(OC(N)=O)C(O)C(Oc2ccc3c(O)c(NC(=O)c4ccc(O)c(CC=C(C)C)c4)c(=O)oc3c2C)OC1(C)C , please.
Result: 80

Task: Tell me the measured viability, T/C of CCc1c2c(nc3ccc(O)cc13)-c1cc3c(c(=O)n1C2)COC(=O)[C@]3(O)CC + COC1C(OC(N)=O)C(O)C(Oc2ccc3c(O)c(NC(=O)c4ccc(O)c(CC=C(C)C)c4)c(=O)oc3c2C)OC1(C)C , please.
Result: 75.4

Task: Tell me the measured viability, T/C of CC[C@@]1(O)C(=O)OCc2c1cc1n(c2=O)Cc2cc3c(CN(C)C)c(O)ccc3nc2-1 + COC1C(OC(N)=O)C(O)C(Oc2ccc3c(O)c(NC(=O)c4ccc(O)c(CC=C(C)C)c4)c(=O)oc3c2C)OC1(C)C , please.
Result: 98.6

Task: Tell me the measured viability, T/C of Cn1ncnc1[C@H]1c2n[nH]c(=O)c3cc(F)cc(c23)N[C@@H]1c1ccc(F)cc1 + Nc1ccc(C#CCN(C(=O)Cc2ncc(C(F)(F)F)cc2C(F)(F)F)c2ccc(F)cc2)nn1 , please.
Result: 117

----------
Test system: 873145-292-R-J1-PDC complex spheroid viability
Assay: Anticancer human tumor 873145-292-R-J1-PDC cell line growth inhibition [POLQ];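 note: luminescence signal used as surrogate for viable cell content; spheroids exposed to compounds for 7 days before viability readout; 100% = DMSO vehicle control viability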
Settings: second compound 3.16 µM; first compound 3.16 µM; stronger effect = lower value
READOUT_NAME: viability, T/C (%)
Give the quantity in %, number only.

[[record]]
compound = "CCc1cc2c(N3CCc4c(cc(Cn5ccnc5)cc4-c4cn(C)nc4C(F)(F)F)C3=O)ccnc2c(OC)n1 + COC1C(OC(N)=O)C(O)C(Oc2ccc3c(O)c(NC(=O)c4ccc(O)c(CC=C(C)C)c4)c(=O)oc3c2C)OC1(C)C"
test_system = "873145-292-R-J1-PDC complex spheroid viability"
experimental_result = 82.4

[[record]]
compound = "COc1cc2cc(C(=O)CCC(=O)O)sc2cc1OC + Nc1ccc(C#CCN(C(=O)Cc2ncc(C(F)(F)F)cc2C(F)(F)F)c2ccc(F)cc2)nn1"
test_system = "873145-292-R-J1-PDC complex spheroid viability"
experimental_result = 103

[[record]]
compound = "CC1COCCN1c1cc(C2(S(C)(=N)=O)CC2)nc(-c2ccnc3[nH]ccc23)n1 (stereo not given) + Cc1cccc(N(C)C(=O)C2C(O)CCN2c2nc(C)cc(C(F)(F)F)c2C#N)c1"
test_system = "873145-292-R-J1-PDC complex spheroid viability"
experimental_result = 77.4

[[record]]
compound = "Nc1ccn(C2OC(CO)C(O)C2(F)F)c(=O)n1 (stereo not given) + COC1C(OC(N)=O)C(O)C(Oc2ccc3c(O)c(NC(=O)c4ccc(O)c(CC=C(C)C)c4)c(=O)oc3c2C)OC1(C)C"
test_system = "873145-292-R-J1-PDC complex spheroid viability"
experimental_result = 50.7


Task: Tell me the measured viability, T/C of CCc1cc2c(N3CCc4c(cc(Cn5ccnc5)cc4-c4cn(C)nc4C(F)(F)F)C3=O)ccnc2c(OC)n1 + Nc1ccc(C#CCN(C(=O)Cc2ncc(C(F)(F)F)cc2C(F)(F)F)c2ccc(F)cc2)nn1 , please.
Result: 80.9
